# Tested on: HOP-62 NSCLC
# assay text: NCI tumour cell line growth inhibition, 48 h; in the data active = GI50 below about 0.43 µM; inactive = the rest
The reply should be one of these categories: true (active), false (inactive)

Asked: Entry S=C(NCCNC(=S)[S][Sn]([c]1ccccc1)([c]1ccccc1)[c]1ccccc1)[S][Sn]([c]1ccccc1)([c]1ccccc1)[c]1ccccc1 : call = ?
Given back: true

Asked: COc1ccc(Cn2cc3c(c2-c2ccccc2)CCc2cnoc2-3)cc1OC ?
Given back: false

Asked: C[C@@H](NC(=O)/C(C#N)=C/c1ccc([N+](=O)[O-])cc1)c1ccccc1 ?
Given back: false

Asked: CCCCCCCCCCCC(=O)N1CCN(C(C)=O)CC1 ?
Given back: false

Asked: Cc1ccc(-c2cc3c4c(nc5ccccc53)C(=O)c3cccnc3-c4n2)cc1 ?
Given back: false

====

# Tested on: KM12 colon
# assay text: NCI tumour cell line growth inhibition, 48 h
Give measured TGI for each item. Keep answers brief.

Asked: Please give the measured TGI for this compound: O=[N+]([O-])c1ccc(C2=Nn3c(nnc3-c3ccc(Cl)cc3)SC2)o1
Given back: 27.6 µM

Asked: CN(C)CCNC(=O)c1cccc2c(NC(CS)C(=O)O)c3ccccc3[n+](C)c12 (stereo unspecified) ?
Given back: > 100 µM

Asked: Cc1ccc(N=NC(=Nc2ccc(Cl)cc2)c2ccc(N(CCC#N)CCC#N)cc2)cc1 ?
Given back: > 100 µM

Asked: COc1ccc2c(O)c(/C=C3\N=Nc4ccccc43)oc2c1C[C@@H]1CCNC[C@H]1F ?
Given back: 12 µM

Asked: COC(=O)c1ccccc1CC(Cc1ccc2c(c1)CCC2)C(=O)OC (stereo unspecified) ?
Given back: > 100 µM

Asked: CC(=O)O[C@@H]1C(=O)N(c2ccccc2)[C@@H]1c1cc2ccccc2c2ccccc12 ?
Given back: > 100 µM

Asked: [N-]=[N+]=Nc1c(Cl)c(Cl)nc2ccccc12 ?
Given back: > 100 µM

Asked: C=C(C)[C@@]1(O)CCCC[C@@H]1CC(Sc1ccccc1)Sc1ccccc1 ?
Given back: 35.1 µM

Asked: CCSc1cc2c(cc1O)CC[C@@H]1[C@@H]2CC[C@]2(C)[C@@H](O)CC[C@@H]12 ?
Given back: 21.9 µM

Asked: C=C1C(=O)O[C@H]2C[C@@H]1CC/C(C)=C/CC/C(C)=C/CC[C@@]2(C)O ?
Given back: > 100 µM

Asked: O=c1c2ccccc2nc2n1-c1ccccc1SC2 ?
Given back: > 100 µM

Asked: O=C(NC(=O)c1ccccc1[N+](=O)[O-])Nc1ccc(Oc2ncc(Cl)cn2)c([N+](=O)[O-])c1 ?
Given back: > 66.3 µM

Asked: COc1cc2c(cc1Cc1cccc(Cl)c1F)c(=O)c(C(=O)O)cn2[C@@H](CO)C(C)C ?
Given back: 13.1 µM

Asked: Nc1nc(N)c(-c2ccccc2)c(C(=O)Nc2ccccc2)n1 ?
Given back: > 100 µM

Asked: Cc1ccc(-c2n[nH]c(=O)n2NC(=O)c2ccccc2C(=O)O)cc1 ?
Given back: > 100 µM

Asked: COc1ccc(C(O)(c2ccccc2)c2nccc3ccccc23)cc1 (stereo unspecified) ?
Given back: > 100 µM

Asked: O=C(CCCN1CCC(Nc2ccccc2)(c2nnnn2C2CCCCC2)CC1)c1ccc(F)cc1 ?
Given back: 21.5 µM

Asked: NC(=O)c1cccc(N=c2oc3ccc(Br)cc3cc2-c2nc3ccccc3[nH]2)c1 ?
Given back: 49 µM

Asked: OCCCNc1ncnc2[nH]ncc12 ?
Given back: > 100 µM

Asked: Cc1ccc([N+](=O)[O-])cc1S(=O)(=O)Nc1ccc(C2=NOC(c3cccs3)C2)cc1 (stereo unspecified) ?
Given back: 29.1 µM

Asked: O=C1C=CC2(C=C1)CCNC1=C2C(=O)c2ccccc2C1=O ?
Given back: > 100 µM
